Test: gradient 5% acetonitrile 3 min, to 50% in 2 min, to 85% in 15 min, held 3 min, 100 µL/min
Settings: column: Zorbax Extend-C18 2.1 x 50 mm; eluents: water / acetonitrile, 0.1% formic acid
Quick reference: RP-LC retention time of the listed items.
Could you write the number and then its unit?

Study these solved cases before continuing.
O=C1COc2c1ccc(O)c2O 623 s
Cc1ccc(NC(=O)CN2CCc3c(c(=O)c4cc(C)ccc4n3C)C2)cc1 649 s
C[C@H]1CN(C(=O)COc2ccc(F)cc2)C[C@@H]1c1nc(-c2ccncc2)no1 793 s
CCc1ccc(C2=C(C)C(N3CCC(C(=O)NCCN4CCCC4)CC3)=NS2(=O)=O)cc1 671 s
COc1ccc2nc(C(=O)NC3CCCCCC3)cn2n1 878 s
Cc1ccc(-c2cc(OCC(N)=O)c3cc(NC(=O)COc4ccccc4)ccc3n2)cc1 700 s

# input For CCCN(C)C(=O)COc1ccc(NC(=O)C2CC2)cn1 , write its RP-LC retention time.
# output 666 s

# input Identify measured RP-LC retention time associated with COc1ccc(-c2csc(N3CCN(c4ccc([N+](=O)[O-])c(-n5nc(C)cc5C)c4)CC3)n2)cc1
# output 1150 s

# input Please list RP-LC retention time recorded for the compound O=C(CCn1c(N2CCCC2)nc2ccsc2c1=O)NCc1ccc(F)cc1
# output 755 s
